- Tested on: peripheral blood mononuclear cells (PBMC)
- PROTOCOL DESCRIPTION: Anti-proliferative or immunosuppressive activity, BrdU incorporation in PHA-stimulated PBMC
- Assay type: cell-based
- STUDY CONDITIONS: PHA 3 μg/ml, 60 hour compound treatment; read-out: EMV PBMC IC50
- Experimental: Method 3: Measuring Anti-Proliferative or Immunosuppressive Activity The potential anti-proliferative activity of compounds on T-cells was analyzed based on the amount of bromodesoxy uridine (BrdU) incorporated into DNA of fresh peripheral blood mononuclear cells (PBMC) using the BrdU ELISA kit (Roche). The assay is performed in 96-well plate format with 30,000 PBMCs seeded per well in X-VIVO 15 medium (Lonza). […]
Starred links: 1 amine or outer side, 2 acyl side, 3 side chain; linkers in the order of their positions; H or OH if unused. Non-standard residues stand in square brackets, D forms with d. Residues, ends and D or L forms follow the SMILES beside them. X19 = COCCN1CCN(C[C@H](C)[C@@H](C(=O)[*:2])N(C)[*:1])CC1; NMe(dihydroBmt) = CCCC[C@@H](C)[C@@H](O)[C@H](NC)C(=O)O; MeBmt = C/C=C/C[C@@H](C)[C@@H](O)[C@H](NC)C(=O)O; X24 = C[C@H](CO)[C@@H](C(=O)[*:2])N(C)[*:1]; NMeL = CN[C@@H](CC(C)C)C(=O)O; NMeV = CN[C@H](C(=O)O)C(C)C; dNMeA = CN[C@H](C)C(=O)O; Abu = CC[C@H](N)C(=O)O
What IC50 was measured for each of the following?

Ask: Report IC50 for CCCC[C@@H](C)[C@@H](O)[C@H]1C(=O)N[C@@H](CC)C(=O)N(C)[C@H](C)C(=O)N(C)[C@@H]([C@@H](C)CN2CCN(CCOC)CC2)C(=O)N[C@@H](C(C)C)C(=O)N(C)[C@@H](CC(C)C)C(=O)N[C@@H](C)C(=O)N[C@H](C)C(=O)N(C)[C@@H](CC(C)C)C(=O)N(C)[C@@H](CC(C)C)C(=O)N(C)[C@@H](C(C)C)C(=O)N1C [Compound 2.17.6] (cyclo(A[dA][NMeL][NMeL][NMeV][NMe(dihydroBmt)][Abu][dNMeA][X19]V[NMeL])) please.
Result: 14.6 µM

Ask: Report IC50 for C/C=C/C[C@@H](C)[C@@H](O)[C@H]1C(=O)N[C@@H](CC)C(=O)N(C)[C@H](C)C(=O)N(C)[C@@H]([C@H](C)CO)C(=O)N[C@@H](C(C)C)C(=O)N(C)[C@@H](CC(C)C)C(=O)N[C@@H](C)C(=O)N[C@H](C)C(=O)N(C)[C@@H](CC(C)C)C(=O)N(C)[C@@H](CC(C)C)C(=O)N(C)[C@@H](C(C)C)C(=O)N1C [Compound 2.5.1] (cyclo(A[dA][NMeL][NMeL][NMeV][MeBmt][Abu][dNMeA][X24]V[NMeL])) please.
Result: 6.8 µM

---

What CypA Kd was measured for each of the following?
- MEASURED ON: cyclophilin A (CypA) (Homo sapiens (Human))
- Sequence (P62937 whole entry): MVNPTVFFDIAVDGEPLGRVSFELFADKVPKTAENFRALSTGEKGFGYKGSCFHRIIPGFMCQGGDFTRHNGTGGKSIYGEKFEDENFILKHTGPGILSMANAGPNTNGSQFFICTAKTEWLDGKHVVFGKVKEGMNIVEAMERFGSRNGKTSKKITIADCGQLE
- PROTOCOL DESCRIPTION: Inhibitor binding to cyclophilin proteins by SPR, CypA;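 also: Single-cycle kinetics on a Biacore T200, compound injected at several concentrations for 1 min each at 50 µL/min, then 10 min dissociation, in HEPES pH 7.4 buffer with 3% DMSO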
- Parameters: unit not given here
- STUDY CONDITIONS: 1:1 binding model
Starred links: 1 amine or outer side, 2 acyl side, 3 side chain; linkers in the order of their positions; H or OH if unused. Non-standard residues stand in square brackets, D forms with d. Residues, ends and D or L forms follow the SMILES beside them. X12 = C[C@@H](CN1CCN(C2CCC2)CC1)[C@@H](C(=O)[*:2])N(C)[*:1]; MeBmt = C/C=C/C[C@@H](C)[C@@H](O)[C@H](NC)C(=O)O; NMeL = CN[C@@H](CC(C)C)C(=O)O; NMeV = CN[C@H](C(=O)O)C(C)C; dNMeA = CN[C@H](C)C(=O)O; Abu = CC[C@H](N)C(=O)O
Number only, no unit.

Ask: Report CypA Kd for CCCC[C@@H](C)[C@@H](O)[C@H]1C(=O)N[C@@H](CC)C(=O)N(C)[C@H](C)C(=O)N(C)[C@@H]([C@@H](C)CN2CCO[C@H](COC)C2)C(=O)N[C@@H](C(C)C)C(=O)N(C)[C@@H](CC(C)C)C(=O)N[C@@H](C)C(=O)N[C@H](C)C(=O)N(C)[C@@H](CC(C)C)C(=O)N(C)[C@@H](CC(C)C)C(=O)N(C)[C@@H](C(C)C)C(=O)N1C please.
Result: 1.7

Ask: Report CypA Kd for C/C=C/C[C@@H](C)[C@@H](O)[C@H]1C(=O)N[C@@H](CC)C(=O)N(C)[C@H](C)C(=O)N(C)[C@@H]([C@H](C)COC)C(=O)N[C@@H](C(C)C)C(=O)N(C)[C@@H](CC(C)C)C(=O)N[C@@H](C)C(=O)N[C@H](C)C(=O)N(C)[C@@H](CC(C)C)C(=O)N(C)[C@@H](CC(C)C)C(=O)N(C)[C@@H](C(C)C)C(=O)N1C please.
Result: 2.05

Ask: Report CypA Kd for C/C=C/C[C@@H](C)[C@@H](O)[C@H]1C(=O)N[C@@H](CC)C(=O)N(C)[C@H](C)C(=O)N(C)[C@@H]([C@@H](C)CN2CCN(C3CCC3)CC2)C(=O)N[C@@H](C(C)C)C(=O)N(C)[C@@H](CC(C)C)C(=O)N[C@@H](C)C(=O)N[C@H](C)C(=O)N(C)[C@@H](CC(C)C)C(=O)N(C)[C@@H](CC(C)C)C(=O)N(C)[C@@H](C(C)C)C(=O)N1C [Compound 2.17.3] (cyclo(A[dA][NMeL][NMeL][NMeV][MeBmt][Abu][dNMeA][X12]V[NMeL])) please.
Result: 0.5

---

- MEASURED ON: CypF (Homo sapiens (Human), UniProt P30405)
- Sequence (P30405 30-207): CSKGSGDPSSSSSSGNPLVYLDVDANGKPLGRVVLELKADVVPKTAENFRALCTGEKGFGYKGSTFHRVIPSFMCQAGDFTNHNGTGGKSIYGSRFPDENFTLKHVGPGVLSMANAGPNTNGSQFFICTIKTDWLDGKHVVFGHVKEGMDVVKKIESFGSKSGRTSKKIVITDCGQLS
- PROTOCOL DESCRIPTION: Inhibitor binding to cyclophilin proteins by SPR, CypF
- STUDY CONDITIONS: 1:1 binding model
Starred links: 1 amine or outer side, 2 acyl side, 3 side chain; linkers in the order of their positions; H or OH if unused. Non-standard residues stand in square brackets, D forms with d. Residues, ends and D or L forms follow the SMILES beside them. X61 = C[C@@H]1CN(CCOC[C@@H](C)[C@@H](C(=O)[*:2])N(C)[*:1])[C@H](C)CO1; X58 = C[C@H](COCCN1CCN(C2CCC2)CC1)[C@@H](C(=O)[*:2])N(C)[*:1]; MeBmt = C/C=C/C[C@@H](C)[C@@H](O)[C@H](NC)C(=O)O; NMeL = CN[C@@H](CC(C)C)C(=O)O; NMeV = CN[C@H](C(=O)O)C(C)C; dNMeA = CN[C@H](C)C(=O)O; Abu = CC[C@H](N)C(=O)O
ATTRIBUTE MEASURED: CypF Kd (nM)
Write the value in nM as a bare number.

Ask: Report CypF Kd for C/C=C/C[C@@H](C)[C@@H](O)[C@H]1C(=O)N[C@@H](CC)C(=O)N(C)[C@H](C)C(=O)N(C)[C@@H]([C@H](C)COCCN2CCN(C3CCC3)CC2)C(=O)N[C@@H](C(C)C)C(=O)N(C)[C@@H](CC(C)C)C(=O)N[C@@H](C)C(=O)N[C@H](C)C(=O)N(C)[C@@H](CC(C)C)C(=O)N(C)[C@@H](CC(C)C)C(=O)N(C)[C@@H](C(C)C)C(=O)N1C [Compound 2.8.8] (cyclo(A[dA][NMeL][NMeL][NMeV][MeBmt][Abu][dNMeA][X58]V[NMeL])) please.
Result: 0.3

Ask: Report CypF Kd for C/C=C/C[C@@H](C)[C@@H](O)[C@H]1C(=O)N[C@@H](CC)C(=O)N(C)[C@H](C)C(=O)N(C)[C@@H]([C@H](C)COCCN2C[C@@H](C)OC[C@H]2C)C(=O)N[C@@H](C(C)C)C(=O)N(C)[C@@H](CC(C)C)C(=O)N[C@@H](C)C(=O)N[C@H](C)C(=O)N(C)[C@@H](CC(C)C)C(=O)N(C)[C@@H](CC(C)C)C(=O)N(C)[C@@H](C(C)C)C(=O)N1C [Compound 2.8.4] (cyclo(A[dA][NMeL][NMeL][NMeV][MeBmt][Abu][dNMeA][X61]V[NMeL])) please.
Result: 0.7
